Tested on: genotype 1a-H77 subgenomic replicon cell line
protocol: microbe, parasite or virus in culture
Assay type: cell-based, HCV
run parameters: Hepatitis C virus, read-out: EC50 1a
Let's look at some compounds and their measured EC50.

// below: answered compounds
COc1c(/C=C/c2ccc(NS(C)(=O)=O)cc2CO)cc(-n2ccc(=O)[nH]c2=O)cc1C(C)(C)C [IB-L1-1.10] = < 10 nM
CCCC(=O)N(c1ccc(NC(=O)c2cc(N3CCC(=O)NC3=O)cc(C(C)(C)C)c2OC)cc1)S(C)(=O)=O [IA-L3-1.71] = 100 to 1000 nM

Recorded EC50 (compound COc1c(-c2nc3cc(NS(C)(=O)=O)ccc3[nH]2)cc(N2CCC(=O)NC2=O)cc1C(C)(C)C [IA-L0-2.1] ): > 1000 nM

Value of measured EC50 for the entry COc1c(-c2ccc3c(c2)CCC3(F)CNS(C)(=O)=O)cc(-n2ccc(=O)[nH]c2=O)cc1C(C)(C)C (stereo not drawn) [IB-L0-2.12] : 10 to 100 nM

get_value(item= COc1c(-c2ncc(-c3cccc(NS(C)(=O)=O)c3)o2)cc(N2CCC(=O)NC2=O)cc1C(C)(C)C [IA-L0-1.9] , readout=EC50) returns > 1000 nM

Record COc1c(-c2ccc(/C=N/NS(C)(=O)=O)c(F)c2)cc(-n2ccc(=O)[nH]c2=O)cc1C(C)(C)C [IB-L0-1.3] . Reported EC50: 100 to 1000 nM

Lab book: EC50 of CC(C)(C)c1cc(N2CCC(=O)NC2=O)cc(C(=O)Nc2ccccc2)c1O [IA-L3-1.3] noted as > 1000 nM
